Overview of recorded TGI for various compounds
# Tested on: SK-MEL-2 melanoma
# Test method notes: NCI tumour cell line growth inhibition, 48 h

Summary for this compound, C=CCC(N[C@H](CO)C(C)C)c1cn(C(=O)OCC)c2ccccc12 (some centres not stated) : TGI is > 100 µM

Continuing:
Summary for this compound, COc1ccccc1C1CC(=O)CC(c2ccccc2OC)C12C(=O)NC(=S)NC2=O (configuration not stated) : TGI is > 100 µM

Summary for this compound, Cc1ccc2c(c1)C1(C)OC(CC(N)C1O)O2 (configuration not stated) : TGI is > 100 µM

Summary for this compound, CCCCCCn1c(SCC)c2ccccc2c1-c1nc(F)nc(F)n1 : TGI is > 100 µM

Summary for this compound, O=c1n(/N=C/c2ccccc2)c(=O)n2n1C1C=CC2CC1 : TGI is > 100 µM

Summary for this compound, COc1cc2c(cc1OC)-c1ccc3cc4c(cc3c1N(CCN1CCCC1)C2)OCO4 : TGI is 20.1 µM

Summary for this compound, C=C1C(=O)C([Si](C)(C)C)=C2C=C(C)C3(CC3)C12C (configuration not stated) : TGI is 61.1 µM

Summary for this compound, COc1ccc(C2c3cc4c(cc3C(O)C3CCC(=O)N23)OCO4)cc1 (configuration not stated) : TGI is > 100 µM

Summary for this compound, CC12CCC(=O)C(O1)C1C(=O)c3cc4ccccc4cc3C(=O)C12 (configuration not stated) : TGI is > 100 µM

----------
# Tested on: SW-620 colon
# Test method notes: NCI tumour cell line growth inhibition, 48 h; in the data active = GI50 below about 0.43 µM; inactive = the rest
Hello, when you answer, please use one of the following outcomes: active, inactive

### Prompt What outcome does the record of this test show for CC(C)(O)c1ccc(N2CCN(c3nnc(Cc4ccccc4)c4ccccc34)CC2)nc1 ?
### Response inactive

### Prompt What outcome does the record of this test show for O=C1C(Cl)=C(N/N=c2/[nH][nH]/c(=N/NC3=C(Cl)C(=O)c4ccccc4C3=O)c3ccccc23)C(=O)c2ccccc21 ?
### Response inactive

### Prompt What outcome does the record of this test show for CCN(CC)CCOc1ccc(C(=C(C)c2ccc(Cl)cc2)c2ccc(OCCN(CC)CC)cc2)cc1 ?
### Response inactive

### Prompt What outcome does the record of this test show for COc1cc2cc(Oc3ccc(NC(=O)Nc4ccc(Cl)c(C(F)(F)F)c4)cc3)c(C)nc2cc1OCCN1CCCCC1 ?
### Response inactive

### Prompt What outcome does the record of this test show for CCOC(=O)Cc1c[nH]c(=S)[nH]c1=O ?
### Response inactive

Continuing:
### Prompt What outcome does the record of this test show for O=c1cc(CNc2cc(F)cc(F)c2)c2ccc(I)cc2[nH]1 ?
### Response active

----------
Overview of recorded TGI for various compounds
# System: SF-268 CNS
# Test method notes: NCI tumour cell line growth inhibition, 48 h

Hey, SF-268 CNS data for Oc1ccccc1/C=N/Nc1nnc2c3ccccc3c3ccccc3c2n1 : TGI came out at > 100 µM

Hey, SF-268 CNS data for O=C(O)c1c[nH]c2c(Sc3ccccc3)nccc2c1=O : TGI came out at > 100 µM

Hey, SF-268 CNS data for Cc1c2cnccc2c(C)c2c1[nH]c1ccc(O)cc12 : TGI came out at > 10 µM

Hey, SF-268 CNS data for CN(C)c1ccc2nc3ccc(=[N+](C)C)cc-3oc2c1 : TGI came out at 4.64 µM

Continuing:
Hey, SF-268 CNS data for N#CC1(C#N)C2CCCCC23OC(=N)C1(C#N)C(c1ccco1)O3 (stereo unspecified) : TGI came out at 67.4 µM

----------
# System: MDA-MB-435
Hello, when you answer, please use one of the following outcomes: Yes (active), No (inactive)

### Prompt What outcome does the record of this test show for COc1cccc(C2=C(c3cn(C)c4ccccc34)C(=O)NC2=O)c1 ?
### Response No

Continuing:
### Prompt What outcome does the record of this test show for CCn1c(-c2nonc2N)nc2cncc(C(=O)N3CCNCC3)c21 ?
### Response No

### Prompt What outcome does the record of this test show for CC1(C)CCC2(C(=O)OC3OC(CO)C(O)C(O)C3O)CC[C@]3(C)C(=CCC4C5(C)CC[C@H](OC6OC(C(=O)O)C(O)C(O)C6O)C(C)(C)C5CCC43C)C2C1 (some centres not stated) ?
### Response No

### Prompt What outcome does the record of this test show for COc1cc2cc(C(=O)N3CC(CCl)c4c3cc(NC(=O)C(C)(C)c3ccccc3[N+](=O)[O-])c3ccccc43)[nH]c2c(OC)c1OC (configuration not stated) ?
### Response No

### Prompt What outcome does the record of this test show for CCOC(=O)c1c2c(n(CC(C)C)c1C)-c1nc[nH]c1C(=O)C2=O ?
### Response No

### Prompt What outcome does the record of this test show for CN(C)c1ccc2nc3ccc(=[N+](C)C)cc-3oc2c1 ?
### Response No

### Prompt What outcome does the record of this test show for N#CC(C#N)=CN1CCN(C(=O)c2ccco2)C1=S ?
### Response No

### Prompt What outcome does the record of this test show for CCOC(=O)Cc1c[nH]c(=S)[nH]c1=O ?
### Response No

### Prompt What outcome does the record of this test show for NC(=O)[C@H]1CCN(c2ncnc(N)c2F)C[C@@H]1N1CCC[C@@H](Nc2cc(Cl)cc(C(F)(F)F)c2)C1=O ?
### Response No

### Prompt What outcome does the record of this test show for CSc1nnc(CCSc2ccnc3c(C(F)(F)F)cccc23)o1 ?
### Response No

### Prompt What outcome does the record of this test show for Fc1ccc(-c2nc3n(c2-c2ccncc2)CCS3)cc1 ?
### Response No

### Prompt What outcome does the record of this test show for Nc1nc(/C=C\c2ccc([N+](=O)[O-])o2)nc(N2CCN(c3ccccc3)CC2)n1 ?
### Response No

### Prompt What outcome does the record of this test show for Cc1cc(N2CCCCC2)nc(N(CCNc2ccnc3cc(Cl)ccc23)Cc2ccco2)n1 ?
### Response No

### Prompt What outcome does the record of this test show for C=CCC(N[C@H](CO)C(C)C)c1cn(C(=O)OCC)c2ccccc12 (some centres not stated) ?
### Response No

### Prompt What outcome does the record of this test show for CN(C)CCNC(=O)c1cccn2c(=O)c3cc4ccccc4cc3nc12 ?
### Response Yes

### Prompt What outcome does the record of this test show for COc1ccc2c(c1)CCC1C2CCC2(C)C1CCC2(O)CNC(=O)CCCCC1CCSS1 (configuration not stated) ?
### Response No

### Prompt What outcome does the record of this test show for N#Cc1ncc(/N=C/c2ccc(N(CCCl)CCCl)cc2)s1 ?
### Response No

----------
# Tested on: BT-549 breast
# Test method notes: NCI tumour cell line growth inhibition, 48 h
*1 amine or outer side, *2 acyl side, *3 side chain or, on linkers, in order; H or OH if unused. Where a SMILES comes first, the peptide text is derived from it. Bridges are numbered along the chain shown (N, C = ends). [ ]: non-standard residue; d: D form. The star is where a group is joined. X38 = CC[C@H](C)[C@@H](N[*:1])[C@@H](O)CC(=O)[*:2]; NMeY = CN[C@@H](Cc1ccc(O)cc1)C(=O)O; dNMeL = CN[C@H](CC(C)C)C(=O)O; Hiv = CC(C)[C@H](O)C(=O)O; Pyruvoyl = CC(=O)C(=O)*
Overview of recorded log10 of TGI for various compounds
Record value = log10 of TGI given in µM.

Please review the following examples before continuing.
Summary for this compound, C=C1C(=O)C([Si](C)(C)C)=C2C=C(C)C3(CC3)C12C (configuration not stated) : log10 of TGI is 1.74

Summary for this compound, O=C1CSC2(CC(/C=C/c3ccccc3O)=NN2c2cccc(S(=O)(=O)O)c2)N1c1nc2ccccc2s1 (configuration not stated) : log10 of TGI is 1.89

Summary for this compound, Cc1cc(N2CCCCC2)nc(N(CCNc2ccnc3cc(Cl)ccc23)Cc2ccco2)n1 : log10 of TGI is 0.54

Summary for this compound, C=CCC(N[C@H](CO)C(C)C)c1cn(C(=O)OCC)c2ccccc12 (some centres not stated) : log10 of TGI is 1.83

Summary for this compound, CC(C)(O)c1ccc(N2CCN(c3nnc(Cc4ccccc4)c4ccccc34)CC2)nc1 : log10 of TGI is 1.38

Summary for this compound, Cc1ccc2[nH]c(C(=O)NN3C(=O)CSC34CCCCC4C)c(-c3ccccc3)c2c1 (configuration not stated) : log10 of TGI is 1.56

Summary for this compound, Cc1nn2c(=O)c([N+](=O)[O-])c(/C=C/c3ccccc3)nc2s1 : log10 of TGI is 0.90

Summary for this compound, Cc1c2ccncc2cc2c1sc1ccncc12 : log10 of TGI is 1.25

Summary for this compound, COc1cc2cc(Oc3ccc(NC(=O)Nc4ccc(Cl)c(C(F)(F)F)c4)cc3)c(C)nc2cc1OCCN1CCCCC1 : log10 of TGI is 0.54

Summary for this compound, N=C(N)c1nn(C2OC(CO)C(O)C2O)c2nc[nH]c(=O)c12 (configuration not stated) : log10 of TGI is 0.43

Continuing:
Summary for this compound, CC[C@](C)(O)C(=O)O[C@H]1C(=O)O[C@@H]2C[C@H]3C(C)=CC(=O)[C@@H](O)[C@]3(C)[C@H]3[C@@]4(O)OC[C@]32[C@@H]1[C@@H](C)[C@H]4O : log10 of TGI is 0.83

Summary for this compound, CC[C@H](C)[C@H]1NC(=O)[C@@H](NC(=O)[C@@H](CC(C)C)N(C)C(=O)[C@@H]2CCCN2C(=O)C(C)=O)[C@@H](C)OC(=O)[C@H](Cc2ccc(OC)cc2)N(C)C(=O)[C@@H]2CCCN2C(=O)[C@H](CC(C)C)NC(=O)[C@H](C(C)C)OC(=O)C[C@@H]1O (Pyruvoyl-P[dNMeL]T[X38][Hiv]LP[NMeY](Me); ester 3-C) : log10 of TGI is -1.74

Summary for this compound, COc1ccc2c(c1)CCC1C2CCC2(C)C1CCC2(O)CNC(=O)CCCCC1CCSS1 (configuration not stated) : log10 of TGI is 1.99

Summary for this compound, C[C@@]12C=CC3C/C(=N\C(N)=S)C=C(CCCC4OCCO4)[C@]3(CC1)C2 (some centres not stated) : log10 of TGI is 1.72

Summary for this compound, O=C(O)C1C(C(=O)O)C2C(=O)C=CC1N2Cc1ccccc1 (configuration not stated) : log10 of TGI is 1.24

Summary for this compound, CCCN(Cc1ccc(F)cc1)c1ccc(CO)c(Cl)c1 : log10 of TGI is 1.41

Summary for this compound, O=C1C(Cl)=C(N/N=c2/[nH][nH]/c(=N/NC3=C(Cl)C(=O)c4ccccc4C3=O)c3ccccc23)C(=O)c2ccccc21 : log10 of TGI is 1.43

Summary for this compound, COc1cc(OCc2ccc3nc(-c4ccccc4)c(N)nc3c2)cc(OC)c1OC : log10 of TGI is 1.69
